Entries and their TGI
Tested on: SN12C renal
procedure.details: NCI tumour cell line growth inhibition, 48 h

| compound | TGI |
| --- | --- |
| CCN(C(C)=O)c1cnc(/C=N/NC(N)=S)c2ccccc12 | > 57.6 µM |
| O=c1n(-c2ccccc2)c(=O)n2n1C1Cc3ccccc3C12 (stereo unspecified) | > 100 µM |
| Cc1ccc(N(C(=O)Nc2ccc(F)c(Cl)c2)C2=NCC(C)S2)cc1 (stereo unspecified) | > 100 µM |
| NCCN.NCCN.O=C([O-])CCl.O=C([O-])CCl.[Co+3].[O-][Cl+3]([O-])([O-])[O-] | > 100 µM |
| O=C(c1ccccc1)[C@@H]1C[C@H](Sc2ccccc2)c2cc(Cl)ccc2N1 | 33.7 µM |
| COc1cc(-n2cc(-c3ccc(Cl)cc3)nc2SCc2cccc(C#N)c2)cc(OC)c1OC | > 100 µM |
| C/C=C(\C)C(=O)OC1C(C)=C2C(C1OC(=O)CCCC)C(C)(OC(C)=O)CC(OC(=O)CCCC)C1(O)C2OC(=O)C1(C)O (stereo unspecified) | > 100 µM |
| O=C1CCCC1C(O)(C(F)(F)F)C(F)(F)F (stereo unspecified) | > 100 µM |
| OC(c1cc(-c2ccc(Cl)cc2)nc2ccccc12)C1CCCCN1 (stereo unspecified) | 3.54 µM |
| Oc1cc(-c2ccc(Cl)cc2)cn2c1nc1ccccc12 | > 100 µM |
| CN(C)C=[N+]=[N-] | > 100 µM |
| COc1cc(/C=C/C(=O)c2c(C)nc3ccccc3c2/C=C/c2ccc(C)cc2)cc(OC)c1OC | 4.31 µM |
| COCn1cnc2c(=O)n(-c3ccc(OC)cc3)c(=S)n(-c3ccc(OC)cc3)c21 | > 100 µM |
| C#C[C@]1(O)CC[C@H]2[C@@H]3CCC4=C/C(=N/NC(=O)c5cccc6cc7ccccc7nc56)CC[C@@H]4[C@H]3CC[C@@]21CC | > 100 µM |
| Cc1ccc(C2=C(C#N)C(=O)N3CCN=C3S2)cc1 | > 100 µM |
| N#CC1=C(N)Oc2c(sc3c(Br)cccc23)C1c1ccc(Br)cc1 (stereo unspecified) | 13.4 µM |
| Nc1c(C(=O)Nc2ccc(C3=NCCN3)cc2)cccc1C(=O)Nc1ccc(C2=NCCN2)cc1 | > 100 µM |
| COC(=O)CN1SC2(SC13C(C)(C)C(=O)C3(C)C)C(C)(C)C(=O)C2(C)C | > 100 µM |
| CC(C)C(Sc1nc(-c2ccccc2)c(-c2ccccc2)[nH]1)C(=O)NN (stereo unspecified) | > 100 µM |
| CCOC(=O)/C(=C\c1ccc(C#N)cc1)C(C)=O | 62.8 µM |
| CC(=O)N(C(C)=O)n1c(-c2ccccc2)n[nH]c1=O | > 100 µM |
